# assay-system: MERTK (UniProt Q12866)
# Sequence (Q12866 whole entry, looked up): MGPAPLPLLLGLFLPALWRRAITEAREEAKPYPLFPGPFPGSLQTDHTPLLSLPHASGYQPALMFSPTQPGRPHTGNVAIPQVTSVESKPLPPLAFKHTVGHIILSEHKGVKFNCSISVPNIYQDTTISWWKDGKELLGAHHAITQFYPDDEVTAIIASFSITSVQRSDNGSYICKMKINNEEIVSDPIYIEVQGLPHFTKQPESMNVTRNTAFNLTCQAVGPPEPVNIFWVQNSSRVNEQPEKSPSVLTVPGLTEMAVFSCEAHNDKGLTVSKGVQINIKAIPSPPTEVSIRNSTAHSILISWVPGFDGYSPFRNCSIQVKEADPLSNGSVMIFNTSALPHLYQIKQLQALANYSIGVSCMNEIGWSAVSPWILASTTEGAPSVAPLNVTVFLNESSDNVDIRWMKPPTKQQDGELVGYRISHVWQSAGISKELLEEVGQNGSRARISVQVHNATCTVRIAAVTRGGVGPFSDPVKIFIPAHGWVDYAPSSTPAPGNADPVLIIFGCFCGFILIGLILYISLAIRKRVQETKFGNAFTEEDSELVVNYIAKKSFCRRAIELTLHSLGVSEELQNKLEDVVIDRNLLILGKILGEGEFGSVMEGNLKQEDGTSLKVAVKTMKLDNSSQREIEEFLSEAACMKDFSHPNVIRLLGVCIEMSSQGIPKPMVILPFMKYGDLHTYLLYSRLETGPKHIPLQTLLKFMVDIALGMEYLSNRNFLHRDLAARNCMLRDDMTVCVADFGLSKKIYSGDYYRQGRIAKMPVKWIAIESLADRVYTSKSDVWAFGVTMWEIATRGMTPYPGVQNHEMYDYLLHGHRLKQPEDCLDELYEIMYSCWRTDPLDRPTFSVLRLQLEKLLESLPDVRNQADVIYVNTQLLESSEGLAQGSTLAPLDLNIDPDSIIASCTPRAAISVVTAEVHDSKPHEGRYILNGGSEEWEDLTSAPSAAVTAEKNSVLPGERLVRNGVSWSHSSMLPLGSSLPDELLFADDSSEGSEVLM
# measurement-description: phosphorylation enrichment, bacterial display (enrichment ratio); higher = better substrate or ligand; peptides without Tyr show the background;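 also: 11-residue human phosphosite peptides and single-mutation variants displayed on the E. coli surface, counted by deep sequencing, each peptide's frequency after selection divided by its frequency in the unselected input library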;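 also: frequency after pTyr selection over input frequency; kinase dosed for 20-30% of maximal phosphorylation in three min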
Would you mind labelling by phosphorylation enrichment? At or over 0.5 is 1, under is 0.

GADAIYDHVNE [UQCR10_Y44_I47V] | 1
PRPACYPSTVS [CACNA1C_Y1832_G1831C] | 0
DGMADCSDPSY [CDC5L_Y459_Y459C] | 0
PLFKIYVAELI [MRPL28_Y230] | 1

Record MFRAGYDTKQE [F10_Y407_C404R] ; criterion: phosphorylation enrichment no lower than 0.5. Met?
0

And what about the sequence GMSQAYSFSQR [DES_Y5_S7F] ?
1

And what about the sequence SSQHRYSTPHA [RAF1_Y232] ?
0

And what about the sequence HEDPMYDIIRD [RP9_Y142] ?
1

And what about the sequence KKGIVYIFNGR [ITGAV_Y404] ?
0

And what about the sequence QRASDYYSQQM [GBP6_Y333_A331S] ?
1

And what about the sequence ARKRKYFKKHE [NFIX_Y40] ?
0

----------
# phosphorylation enrichment per record follows
# assay-system: Hck (UniProt P08631)
# Sequence (P08631 whole entry, looked up): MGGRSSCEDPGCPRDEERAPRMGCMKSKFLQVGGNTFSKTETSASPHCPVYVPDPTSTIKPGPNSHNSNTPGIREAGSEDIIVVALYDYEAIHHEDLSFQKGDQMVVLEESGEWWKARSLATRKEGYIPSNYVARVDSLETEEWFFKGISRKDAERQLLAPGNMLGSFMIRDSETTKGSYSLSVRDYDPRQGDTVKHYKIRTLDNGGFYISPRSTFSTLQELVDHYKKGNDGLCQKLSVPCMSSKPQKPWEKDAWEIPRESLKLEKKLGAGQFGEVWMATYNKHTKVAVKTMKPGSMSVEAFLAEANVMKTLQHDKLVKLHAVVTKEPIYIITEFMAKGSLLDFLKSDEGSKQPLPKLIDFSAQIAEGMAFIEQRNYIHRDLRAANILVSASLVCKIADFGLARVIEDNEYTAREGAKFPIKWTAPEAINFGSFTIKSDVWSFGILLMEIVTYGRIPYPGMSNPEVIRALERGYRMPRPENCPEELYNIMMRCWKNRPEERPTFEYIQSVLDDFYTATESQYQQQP
# measurement-description: phosphorylation enrichment, bacterial display (enrichment ratio); higher = better substrate or ligand; peptides without Tyr show the background
Write the value as a bare number.

SWSTSYSGFRC [NKAPL_Y91_Y96C_YF] | 0.642

phosphorylation enrichment for KINKMYSDRAM ?
0.396

And what about the sequence RELGKYGLQAY [ALDH2_Y497_E496K] ?
0.455

And what about the sequence FSMGCYEIFLG [HMGCL_Y198_S201Y_YF] ?
3.21

And what about the sequence EVVGRYSVHYA [MLH1_Y183_N187Y] ?
0.38

And what about the sequence FEEDPYLVVNP [MCM6_Y810_YF] ?
1.04

----------
# phosphorylation enrichment per record follows
# assay-system: EPHB2 (UniProt P29323)
# Sequence (P29323 whole entry, looked up): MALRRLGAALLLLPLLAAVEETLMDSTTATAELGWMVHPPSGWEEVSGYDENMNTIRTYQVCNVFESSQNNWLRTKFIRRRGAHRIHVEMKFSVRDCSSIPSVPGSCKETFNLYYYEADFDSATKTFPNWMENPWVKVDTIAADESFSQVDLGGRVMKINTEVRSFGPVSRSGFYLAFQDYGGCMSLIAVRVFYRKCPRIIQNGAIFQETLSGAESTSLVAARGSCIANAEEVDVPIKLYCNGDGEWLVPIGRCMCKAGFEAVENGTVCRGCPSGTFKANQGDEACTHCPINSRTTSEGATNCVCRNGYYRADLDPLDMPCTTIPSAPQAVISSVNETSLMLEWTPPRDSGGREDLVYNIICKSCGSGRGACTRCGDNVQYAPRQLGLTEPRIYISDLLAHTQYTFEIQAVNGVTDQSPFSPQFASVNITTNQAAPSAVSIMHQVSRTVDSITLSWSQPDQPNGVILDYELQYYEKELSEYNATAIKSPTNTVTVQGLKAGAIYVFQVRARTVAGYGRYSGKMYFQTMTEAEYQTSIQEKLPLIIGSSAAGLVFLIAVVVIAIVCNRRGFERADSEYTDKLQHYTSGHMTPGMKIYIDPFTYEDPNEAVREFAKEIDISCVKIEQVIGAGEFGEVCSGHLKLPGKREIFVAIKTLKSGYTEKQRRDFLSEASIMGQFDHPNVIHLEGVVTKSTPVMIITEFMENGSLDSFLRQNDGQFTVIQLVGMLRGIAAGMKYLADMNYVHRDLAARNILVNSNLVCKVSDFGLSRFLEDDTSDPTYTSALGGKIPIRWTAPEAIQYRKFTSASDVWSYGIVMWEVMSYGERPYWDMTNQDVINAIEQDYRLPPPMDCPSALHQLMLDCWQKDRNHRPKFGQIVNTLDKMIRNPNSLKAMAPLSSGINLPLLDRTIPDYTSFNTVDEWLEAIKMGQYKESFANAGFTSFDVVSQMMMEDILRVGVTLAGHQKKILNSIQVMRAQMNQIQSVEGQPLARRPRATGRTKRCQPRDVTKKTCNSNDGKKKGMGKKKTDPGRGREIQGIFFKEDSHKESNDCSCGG
# measurement-description: phosphorylation enrichment, bacterial display (enrichment ratio); higher = better substrate or ligand; peptides without Tyr show the background
Write the value as a bare number.

INSLKYAFNVS [EIF2B5_Y583_I587V_YF] | 0.43
REAAAYLHGRL [AGXT_Y297] | 0.571
MASTSYDYCRV [BST2_Y6] | 3.51
KGFCGYSFDDI [TMEM230_Y110_R108C_YF] | 0.568
QKPLDYFRVNL [GALE_Y104_YF] | 0.636
RSSGGYEPRGR [FUS_Y239] | 0.452

phosphorylation enrichment for NFGTNYRVGSS [CPO_Y278_K273N_YF] ?
0.515

And what about the sequence YAADYYKLLGN [ROR2_Y646] ?
0.863

And what about the sequence TDTAAYEERVR [SPTB_Y474] ?
0.767

And what about the sequence KSMSVYCTPNK [ATP2A2_Y497] ?
0.702

And what about the sequence RGEKQYLAAPL [ALOX12_Y295] ?
0.461

And what about the sequence VGTKRYMAPDV [ACVRL1_Y375_E379D] ?
0.402

----------
# phosphorylation enrichment per record follows
# assay-system: Hck (UniProt P08631)
# measurement-description: phosphorylation enrichment, bacterial display (enrichment ratio); higher = better substrate or ligand; peptides without Tyr show the background
Write the value as a bare number.

ADRNHYRRYRR [YBX1_Y145_P149R] | 0.522
KEEEDYKEENN [BMS1_Y651] | 0.516
SHMVNYQPYRK [TEX37_Y25_D24N] | 0.396
EEQKKYFNATK [SCN5A_Y1494_M1498T_YF] | 0.379
IGEGTSGVVYK [CDK2_Y15_Y15S] | 0.306

phosphorylation enrichment for KELANYYKLHH [AK7_Y390] ?
0.495

And what about the sequence LFDPDFMKVIL [CYP4A22_Y104_Y104F_YF] ?
1.12
